pIC50: −log10 of the molar value.
For Pim-2 (Homo sapiens (Human), UniProt Q9P1W9), measured pIC50 is reported for the entries below.

Would you please look over these solved cases?
| CHEMICAL_SMILES | pIC50 |
| --- | --- |
| C[C@@H]1C[C@H](N)CN(c2ccncc2NC(=O)c2ccc3ccc(N4CCC(c5ccncc5)CC4)cc3n2)C1 | 6.00 to 7.00 |
| C[C@@H]1C[C@H](N)CN(c2ccncc2NC(=O)c2ccc3ccc(N4CCC(O)CC4)cc3n2)C1 | ≥ 7.00 |
| C[C@H]1CN(c2ccncc2NC(=O)c2ccc3ccc(N4CCOCC4)cc3n2)C[C@@H](N)[C@@H]1O | ≥ 7.00 |
| CCN1CCN(c2ccc3ccc(C(=O)Nc4cnccc4N4C[C@H](C)C[C@H](N)C4)nc3c2)CC1=O | ≥ 7.00 |
| C[C@@H]1C[C@H](N)CN(c2ccncc2NC(=O)c2ccc3ccc(N4CCC(N5CCOCC5)CC4)cc3n2)C1 | 6.00 to 7.00 |

Ask: I am curious: what pIC50 value has been reported for CC(C)c1ccc2ccc(C(=O)Nc3cnccc3N3C[C@@H](N)[C@H](O)[C@@H](C)C3)nc2c1 ?
Reply: ≥ 7.00

Ask: I am curious: what pIC50 value has been reported for N[C@@H]1CN(c2ccncc2NC(=O)c2ccc3ncc(N4CCC5(CCCO5)CC4)cc3n2)C[C@H](C2CC2)[C@H]1O ?
Reply: 6.00 to 7.00
